Test system: KB-3-1
Assay: Cytotoxic Profiling of Annotated Libraries Using Quantitative High-Throughput Screening (AID 1296008); also: % is scaled to controls: 0 for no effect and ±100 for the full control effect; nearly all actives have a fitted effect of over 60% in size
Settings: Five cell lines viability, CellTiter-Glo ATP luminescence, 48-72 h; hits give low values
Records with an inconclusive call do not appear.
The following compounds are listed with their measured max response values.
I only need the number, in %, no unit after it.

Compound | Target Desc | max response (%)
NC(=O)c1cccc2cn(-c3ccc(C4CCCNC4)cc3)nc12 (stereo not given) | KB-3-1 | -7.35
C/C=C/C1=CC2=C(CO1)C(=O)C(C)(O)C(OC(=O)c1c(C)cc(OC)cc1O)C2 (stereo not given) | KB-3-1 | 3.88
CCCC(=O)NCCc1csc(-c2ccc(Cl)cc2)n1 | KB-3-1 | -24.2
COc1cc2c(cc1OC)N1C(=O)C[C@]34C=CCN5CC[C@@H]2[C@@H](CC3)[C@]514 | KB-3-1 | 7.8

Req: Enter reported max response observed with KB-3-1 for `C[C@@H]1CCC/C=C/[C@H]2CC(=O)C[C@@H]2[C@@H](O)/C=C/C(=O)O1`
Resp: 8.18

---

Tested on: HeLa
Experiment: Primary qHTS to identify gynecologic anti-cancer compounds using libraries of approved drugs and bioactive compounds (AID 1345084); also: nearly all actives have a fitted effect of over 55% in size
Details: Gynecologic cancer cell panel viability, ATPlite luminescence, 48 h; series mostly up to 57.5 µM
Results filed as inconclusive are left out. Active and inactive are the calls of the source. The call rests on the fitted dose curve; in most records, active means well fitted cell-killing curve with a large enough effect; inconclusive means small, poorly fitted or top-dose-only effect, or effect the other way; inactive means flat fitted curve, though single readings scatter. Where a SMILES comes first, the peptide text is derived from it. [ ]: non-standard residue; d: D form. ξ: configuration not given here. ξPhe(βξ-Me) = CC(c1ccccc1)C(N)C(=O)O; GABA = NCCCC(=O)O
Result category, one only: active, inactive

See these solved cases before continuing.
Compound | Target Desc | Qualitative Label
CC(C)c1ccc2c(c1)C(=O)CC1[C@@](C)(C(=O)O)CCC[C@]21C (stereo partly specified) | HeLa | inactive
COC(=O)CC(O)C1OC(c2ccccc2)C(O)C1O (stereo unspecified) | HeLa | inactive
CCO[C@@H]1OC(=O)C[C@@H]1NC(=O)[C@@H]1CCCN1C(=O)[C@@H](NC(=O)c1ccc(N)c(Cl)c1)C(C)(C)C | HeLa | inactive
CC1COC2(OC3CC4C5CC(O[C@@H]6O[C@H](C)[C@@H](O[C@@H]7O[C@@H](C)[C@H](O)[C@@H](O)[C@H]7O)[C@H](O)[C@H]6O)C6CC(O)CCC6(C)C5CCC4(C)C3C2C)C(O)C1 (stereo partly specified) | HeLa | inactive
Cc1nc(Nc2n[nH]c3c2CN(C(=O)NC(CN(C)C)c2ccccc2)C3(C)C)c2sccc2n1 (stereo unspecified) | HeLa | active
CC(C)[C@@](C)(O)[C@@H]1CN(c2nc(-c3[nH]nc4ncccc34)c(F)cc2Cl)CCN1 | HeLa | inactive
C=C[C@H]1[C@H](O[C@@H]2O[C@H](CO)[C@@H](O)[C@H](O)[C@H]2O)OC=C(C(=O)OC)[C@H]1C[C@@H]1c2cc(O)c(O)cc2CCN1C(C)=O | HeLa | inactive
CC(C)c1cc2c(c(O)c1O)[C@@]13CCCC(C)(C)[C@@H]1[C@H](OC3=O)C2=O | HeLa | inactive

Req: Tell me the assay call for CCC(C)C(=O)O[C@H]1CCC=C2C=C[C@H](C)[C@H](CC[C@@H](O)C[C@@H](O)CC(=O)O)[C@H]21 (stereo partly specified) please.
Resp: inactive

Req: Tell me the assay call for CC1NC(=O)CCCNC(=O)C(Cc2c[nH]c3ccccc23)NC(=O)C(C)NC(=O)C(C(C)C)NC(=O)C(C(C)c2ccccc2)NC(=O)C(C(C)C)NC1=O (stereo not drawn) (cyclo([GABA]AV[ξPhe(βξ-Me)]VAW); configuration not given here) please.
Resp: inactive
